- Experimental system: α-glucosidase (EC3.2.1.20) (Saccharomyces cerevisiae)
- Construct: purchased Sigma Aldrich
- Assay: α-Glucosidase enzyme kinetics (Lineweaver–Burk, Dixon plots, secondary plots, Yang's method)
- Assay type: biochemical
- Test settings: double reciprocal (Lineweaver–Burk) plots
Endpoint name: Kinetic mode

C=C(C)[C@H]1Cc2c(oc3c4c(cc(O)c3c2=O)OC(C)(C)C=C4)-c2c(O)cc(O)c(O)c21 [Compound 2, artobiloxanthone] : Competitive
C=C(C)C1Cc2c(oc3cc(OC)cc(O)c3c2=O)-c2c(O)cc(O)c(O)c21 (stereo not drawn) [Compound 1] : Competitive
CC(C)=CCc1c(-c2cc(O)c(O)cc2O)oc2c3c(cc(O)c2c1=O)OC(C)(C)C=C3 [Compound 6, artonin E] : Mixed type I
CC(C)=CCCC1(C)C=Cc2c(cc(O)c3c(=O)c(CC=C(C)C)c(-c4cc(O)c(O)cc4O)oc23)O1 (single isomer, unassigned; (-)) [Compound 5] : Mixed type I
CC1(C)Oc2c(O)cc(O)c3c2C1Cc1c-3oc2cc(O)cc(O)c2c1=O (stereo not drawn) [Compound 3, artoindonesianin P] : Competitive

Moving on to another compound below.
Supply Kinetic mode measured with α-glucosidase (EC3.2.1.20) (Saccharomyces cerevisiae) for CC1(C)C=Cc2c(cc(O)c3c(=O)c4c(oc23)-c2c(O)cc(O)c3c2C(C4)C(C)(C)O3)O1 (stereo not drawn) [Compound 4, cycloartobiloxanthone] . Competitive

###

- Experimental system: α-glucosidase (EC3.2.1.20) (Saccharomyces cerevisiae)
- Construct: purchased Sigma Aldrich
- Assay: α-Glucosidase enzyme kinetics (Lineweaver–Burk, Dixon plots, secondary plots, Yang's method)
- Type: biochemical
- Test settings: [I] 7.5 μM, Yang's method
Exercise: state measured Kik/Kiv for each of the compounds provided.
Give bare numbers.

CC(C)=CCCC1(C)C=Cc2c(cc(O)c3c(=O)c(CC=C(C)C)c(-c4cc(O)c(O)cc4O)oc23)O1 (single isomer, unassigned; (-)) [Compound 5] : 3.79
C=C(C)[C@H]1Cc2c(oc3c4c(cc(O)c3c2=O)OC(C)(C)C=C4)-c2c(O)cc(O)c(O)c21 [Compound 2, artobiloxanthone] : 76.6587
CC(C)=CCc1c(-c2cc(O)c(O)cc2O)oc2c3c(cc(O)c2c1=O)OC(C)(C)C=C3 [Compound 6, artonin E] : 3.7049

Moving on to another compound below.
Provide one value: measured Kik/Kiv of CC1(C)C=Cc2c(cc(O)c3c(=O)c4c(oc23)-c2c(O)cc(O)c3c2C(C4)C(C)(C)O3)O1 (stereo not shown) [Compound 4, cycloartobiloxanthone] 16.6987

###

- Experimental system: α-glucosidase (EC3.2.1.20) (Saccharomyces cerevisiae, UniProt P53341)
- Construct: purchased Sigma Aldrich
- Sequence (P53341 whole entry): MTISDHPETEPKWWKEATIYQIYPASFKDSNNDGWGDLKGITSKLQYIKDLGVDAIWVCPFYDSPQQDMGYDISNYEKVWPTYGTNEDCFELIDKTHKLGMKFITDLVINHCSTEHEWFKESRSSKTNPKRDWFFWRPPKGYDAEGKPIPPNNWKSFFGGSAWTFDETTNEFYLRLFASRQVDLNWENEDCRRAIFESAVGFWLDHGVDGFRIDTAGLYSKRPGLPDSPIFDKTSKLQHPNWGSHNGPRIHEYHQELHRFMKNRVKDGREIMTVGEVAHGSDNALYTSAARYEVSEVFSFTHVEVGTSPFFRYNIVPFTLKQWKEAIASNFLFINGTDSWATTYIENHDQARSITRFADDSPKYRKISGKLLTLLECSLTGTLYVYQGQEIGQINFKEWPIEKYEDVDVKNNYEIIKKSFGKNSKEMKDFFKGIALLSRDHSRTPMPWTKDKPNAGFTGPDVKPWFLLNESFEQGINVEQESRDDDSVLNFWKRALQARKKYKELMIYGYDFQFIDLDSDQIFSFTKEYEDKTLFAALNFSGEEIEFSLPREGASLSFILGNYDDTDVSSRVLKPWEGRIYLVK
- Assay: α-Glucosidase enzyme kinetics (Lineweaver–Burk, Dixon plots, secondary plots, Yang's method)
- Format: biochemical
- Test settings: [I] 15.0 μM, Yang's method
Endpoint name: Kik/Kiv
Answers are plain numbers.

Worked cases, Kik/Kiv given:
CC1(C)C=Cc2c(cc(O)c3c(=O)c4c(oc23)-c2c(O)cc(O)c3c2C(C4)C(C)(C)O3)O1 (stereo not shown) : 11.4837
CC(C)=CCCC1(C)C=Cc2c(cc(O)c3c(=O)c(CC=C(C)C)c(-c4cc(O)c(O)cc4O)oc23)O1 (single isomer, unassigned; (-)) : 3.18
C=C(C)[C@H]1Cc2c(oc3c4c(cc(O)c3c2=O)OC(C)(C)C=C4)-c2c(O)cc(O)c(O)c21 : 102.4604

Moving on to another compound below.
Supply Kik/Kiv measured with α-glucosidase (EC3.2.1.20) (Saccharomyces cerevisiae, UniProt P53341) for CC(C)=CCc1c(-c2cc(O)c(O)cc2O)oc2c3c(cc(O)c2c1=O)OC(C)(C)C=C3 . 2.5098
